Reported koff by item:
Molecular target: T1, mouse folate receptor alpha (mFRα), recombinant protein (mouse, UniProt P35846 25-232)
T1 construct: Bought recombinant proteins (e.g. biotinylated, Acro Biosystems FO1-M82E9); also called mFOLR1; Ms FOLR1
T1 sequence (P35846 25-232 limits assumed): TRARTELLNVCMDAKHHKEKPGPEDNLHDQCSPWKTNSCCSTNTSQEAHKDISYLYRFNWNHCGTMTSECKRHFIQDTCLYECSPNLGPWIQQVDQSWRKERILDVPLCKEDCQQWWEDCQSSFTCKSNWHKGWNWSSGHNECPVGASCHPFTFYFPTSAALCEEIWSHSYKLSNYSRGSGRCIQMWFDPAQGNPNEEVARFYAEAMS
Test: BLI off-rate analysis

// koff value for P01500075: P01500001[E1D, I33L, N73P]Flag3-His6-GS-NT (VHH, Entry includes tags, linker and NT(8-13)) VHH: DVQLVESGGGLVQPGGSLRLSCAASGSGFSGMLMGWYRQAPGKQRELVATVTSHGTTNYADSVKGRFTISRDPAKNTVYLQMNSLRPEDTAVYYCNAHFPGIYWGKGTLVTVSS : 0.000125 s⁻¹

// koff value for P01500077: P01500001[E1D, G28T, S30I, N73P]Flag3-His6-GS-NT (VHH, Entry includes tags, linker and NT(8-13)) VHH: DVQLVESGGGLVQPGGSLRLSCAASGSTFIGMIMGWYRQAPGKQRELVATVTSHGTTNYADSVKGRFTISRDPAKNTVYLQMNSLRPEDTAVYYCNAHFPGIYWGKGTLVTVSS : 0.000335 s⁻¹

// koff value for P01500076: P01500001[E1D, G26E, G28T, S30I, I33L]Flag3-His6-GS-NT (VHH, Entry includes tags, linker and NT(8-13)) VHH: DVQLVESGGGLVQPGGSLRLSCAASESTFIGMLMGWYRQAPGKQRELVATVTSHGTTNYADSVKGRFTISRDNAKNTVYLQMNSLRPEDTAVYYCNAHFPGIYWGKGTLVTVSS : 0.000164 s⁻¹
